FYI, the data here is from the supplement of paper PMC11061612.

tested on: COLO-680N (Esophageal Squamous Cell Carcinoma); experiment: Bliss excess, mean over the matrix (fraction); higher = more synergy;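 note: after 72 h of two-drug dosing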
ENDPOINT: Bliss excess

COMPOUND	ENDPOINT	QUANTITATIVE_RESULT
NC1(C(=O)N[C@@H](CCO)c2ccc(Cl)cc2)CCN(c2ncnc3[nH]ccc23)CC1 [Capivasertib] + CCN(CCO)CCCOc1ccc2c(Nc3cc(CC(=O)Nc4cccc(F)c4)[nH]n3)ncnc2c1 [AZD2811] (first compound max 10 µM, 7x7, partner max 1 µM)	Bliss excess	-0.0009
COc1nnc2ccc(N3CCC(c4ccc(OCCN5CCN(C)C(=O)[C@H]5C)cc4)CC3)nn12 [AZD5153] + Cc1c2c(nn1C)CSCc1cc(n(C)n1)CSc1cc(c3ccccc3c1)OCCCc1c(C(=O)O)n(C)c3c-2c(Cl)ccc13 [AZD5991] (first compound max 1 µM, 7x7, partner max 1 µM)	Bliss excess	-0.0205
Cn1cnc2c(F)c(Nc3ccc(Br)cc3Cl)c(C(=O)NOCCO)cc21 [Selumetinib] + CC(C)n1c(=O)n(C)c2cnc3cc(F)c(-c4ccc(OCCCN5CCCCC5)nc4)cc3c21 [AZD1390] (first compound max 10 µM, 7x7, partner max 0.3 µM)	Bliss excess	-0.0022
NC1(C(=O)N[C@@H](CCO)c2ccc(Cl)cc2)CCN(c2ncnc3[nH]ccc23)CC1 [Capivasertib] + CC(=O)c1c(C)c2cnc(Nc3ccc(N4CCNCC4)cn3)nc2n(C2CCCC2)c1=O [Palbociclib] (first compound max 10 µM, 7x7, partner max 10 µM)	Bliss excess	-0.0467
